B1: SLC35F2 (parent)
chain: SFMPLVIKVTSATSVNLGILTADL

variants of: B1; assay: protein stability index of a GFP-peptide fusion (GPS, HEK-293T) (PSI 1-6); higher = more stable; conditions: c terminus: a fixed tail appended;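 note: lentivirally expressed fusions sorted by FACS into six bins by GFP to DsRed ratio, PSI derived from sequencing read proportions per bin multiplied by bin number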
property: protein stability index

* SAMPLVIKVTSATSVNLGILTADL | 2.38
* SFMPLVIKVTSATSVHLGILTADL | 2.74
* SFMPLVIKSTSATSVNLGILTADL | 1.56
* SFMPLVIKVTSATSVNLGCLTADL | 2.99
* MFMPLVIKVTSATSVNLGILTADL | 2.14
* SFMPLVIKVTSATSVNLDILTADL | 3.2
* SFMPLVIKVTSATSVNPGILTADL | 2.74
* SFMPLVIKVTSATSVNLMILTADL | 2.55
* SFMPLVIKVTSATSVNLGICTADL | 2.67
* SSMPLVIKVTSATSVNLGILTADL | 2.92
* SFMPLVIKVTSATSVWLGILTADL | 2.82
* SFMPLVIKVTSATSVNLGILWADL | 2.7
* SFMPLVIKVTSAGSVNLGILTADL | 2.38
* SFMPLVIKCTSATSVNLGILTADL | 3.06
* SFMPLVIKVTSAKSVNLGILTADL | 2.16
